Where do these numbers come from? They come from ChEMBL document CHEMBL3885861.

Organism: Rattus norvegicus
ASSAY_PROCEDURE: Open TG-GATES - Regimen: Daily Repeat
Format: toxicity, organism-based, Sprague-Dawley
Design: regimen Daily Repeat, gender Male, age 6 weeks
CONDITION_SUMMARY: in vivo, po, 0 mg/kg, […], tissue Plasma, route gavage, dose level Control, time 7 day
TEST_READOUT: GLC

- COMPOUND: "COc1ccc(O)c(C(C)(C)C)c1.COc1ccc(O)cc1C(C)(C)C [BUTYLATED HYDROXYANISOLE]"
  RESULT: "180.2 mg/dL"
- COMPOUND: "Cn1c(=O)c2c(ncn2C)n(C)c1=O [CAFFEINE]"
  RESULT: "197.8 mg/dL"
- COMPOUND: "O=C1NC(=O)C(c2ccccc2)(c2ccccc2)N1 [PHENYTOIN]"
  RESULT: "197.2 mg/dL"
- COMPOUND: "O=P1(N(CCCl)CCCl)NCCCO1 (stereo unspecified) [CYCLOPHOSPHAMIDE ANHYDROUS]"
  RESULT: "196.2 mg/dL"
- COMPOUND: "C=CCO [ALLYL ALCOHOL]"
  RESULT: "219.6 mg/dL"
- COMPOUND: "Cn1cnc([N+](=O)[O-])c1Sc1ncnc2nc[nH]c12 [AZATHIOPRINE]"
  RESULT: "201.4 mg/dL"

---

Species: Rattus norvegicus
ASSAY_PROCEDURE: Open TG-GATES - Regimen: Daily Repeat
Format: toxicity, organism-based, Sprague-Dawley
Parameters: regimen Daily Repeat, gender Male, age 6 weeks
CONDITION_SUMMARY: in vivo, po, 0 mg/kg, […], tissue Blood, route gavage, dose level Control, time 7 day
# MCHC per entry

- MOLECULE: "C=CCO"
  MCHC (%): 34.4
- MOLECULE: "COc1ccc(Cl)cc1C(=O)NCCc1ccc(S(=O)(=O)NC(=O)NC2CCCCC2)cc1 [GLYBURIDE]"
  MCHC (%): 33.7
- MOLECULE: "Cn1cnc([N+](=O)[O-])c1Sc1ncnc2nc[nH]c12"
  MCHC (%): 34.7
- MOLECULE: "O=C1NC(=O)C(c2ccccc2)(c2ccccc2)N1"
  MCHC (%): 34.2
- MOLECULE: "Cn1c(=O)c2c(ncn2C)n(C)c1=O"
  MCHC (%): 33.6
- MOLECULE: "CS(=O)(=O)Nc1ccc([N+](=O)[O-])cc1Oc1ccccc1 [NIMESULIDE]"
  MCHC (%): 34.1
- MOLECULE: "Cc1cnc(NC(=O)C2=C(O)c3ccccc3S(=O)(=O)N2C)s1"
  MCHC (%): 34.9
- MOLECULE: "Cc1cccc(Nc2cc(Cl)nc(SCC(=O)O)n2)c1C"
  MCHC (%): 34.7
- MOLECULE: "O=P1(N(CCCl)CCCl)NCCCO1 (stereo unspecified) [CYCLOPHOSPHAMIDE ANHYDROUS]"
  MCHC (%): 33.1
- MOLECULE: "COc1ccc(O)c(C(C)(C)C)c1.COc1ccc(O)cc1C(C)(C)C [BUTYLATED HYDROXYANISOLE]"
  MCHC (%): 34.7
- MOLECULE: "O=C1CN(/N=C/c2ccc(-c3ccc([N+](=O)[O-])cc3)o2)C(O)=N1"
  MCHC (%): 33.6
